# study.target: human mGlu5 receptor (Homo sapiens, UniProt P41594)
# Sequence (P41594 21-856): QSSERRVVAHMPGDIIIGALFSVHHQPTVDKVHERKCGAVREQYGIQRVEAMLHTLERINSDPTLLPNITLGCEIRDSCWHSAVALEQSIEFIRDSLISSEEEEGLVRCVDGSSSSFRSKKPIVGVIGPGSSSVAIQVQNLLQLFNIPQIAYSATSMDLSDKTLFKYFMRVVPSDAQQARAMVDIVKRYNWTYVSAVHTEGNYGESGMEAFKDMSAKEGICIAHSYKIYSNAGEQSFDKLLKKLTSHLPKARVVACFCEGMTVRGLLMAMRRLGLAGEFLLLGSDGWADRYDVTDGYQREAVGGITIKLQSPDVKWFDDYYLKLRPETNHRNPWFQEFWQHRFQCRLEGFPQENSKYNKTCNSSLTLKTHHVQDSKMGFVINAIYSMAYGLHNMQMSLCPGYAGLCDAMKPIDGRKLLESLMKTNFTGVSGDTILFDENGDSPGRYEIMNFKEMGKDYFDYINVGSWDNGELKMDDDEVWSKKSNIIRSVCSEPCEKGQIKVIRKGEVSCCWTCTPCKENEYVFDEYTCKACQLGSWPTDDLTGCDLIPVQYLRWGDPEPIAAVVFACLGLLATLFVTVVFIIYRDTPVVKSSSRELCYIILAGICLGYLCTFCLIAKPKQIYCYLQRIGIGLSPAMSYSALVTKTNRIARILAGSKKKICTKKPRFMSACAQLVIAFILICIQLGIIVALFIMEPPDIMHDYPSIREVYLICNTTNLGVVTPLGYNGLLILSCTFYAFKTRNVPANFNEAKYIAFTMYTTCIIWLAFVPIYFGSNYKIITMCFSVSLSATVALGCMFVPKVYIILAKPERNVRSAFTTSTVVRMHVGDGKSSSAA
# assay.summary: Bodipy-FL GTPγS activation of purified Gq/Gs by purified receptor ([…] ligand); pEC50 from IP-One assay in HEK293 cells
# Assay type: biochemical
# Design: gene GRM5; mGlu5-Δ856 (C-terminus truncated after Ala856)
observation.type: EC50 (nM)
Answer in nM, number only, no unit symbol.

*Q* May I ask what EC50 has been recorded for C[C@@H](NC(=O)c1ccc(C#Cc2cccc(F)c2)cn1)C(C)(C)O ?
*A* 2.95
